measured-target: INaL v1.6 (late sodium current, HEK-293 cells expressing recombinant sodium channels) (Homo sapiens, UniProt Q9UQD0)
Construct: expressed in transfected cells; host or cells: HEK-293
Sequence (Q9UQD0 whole entry): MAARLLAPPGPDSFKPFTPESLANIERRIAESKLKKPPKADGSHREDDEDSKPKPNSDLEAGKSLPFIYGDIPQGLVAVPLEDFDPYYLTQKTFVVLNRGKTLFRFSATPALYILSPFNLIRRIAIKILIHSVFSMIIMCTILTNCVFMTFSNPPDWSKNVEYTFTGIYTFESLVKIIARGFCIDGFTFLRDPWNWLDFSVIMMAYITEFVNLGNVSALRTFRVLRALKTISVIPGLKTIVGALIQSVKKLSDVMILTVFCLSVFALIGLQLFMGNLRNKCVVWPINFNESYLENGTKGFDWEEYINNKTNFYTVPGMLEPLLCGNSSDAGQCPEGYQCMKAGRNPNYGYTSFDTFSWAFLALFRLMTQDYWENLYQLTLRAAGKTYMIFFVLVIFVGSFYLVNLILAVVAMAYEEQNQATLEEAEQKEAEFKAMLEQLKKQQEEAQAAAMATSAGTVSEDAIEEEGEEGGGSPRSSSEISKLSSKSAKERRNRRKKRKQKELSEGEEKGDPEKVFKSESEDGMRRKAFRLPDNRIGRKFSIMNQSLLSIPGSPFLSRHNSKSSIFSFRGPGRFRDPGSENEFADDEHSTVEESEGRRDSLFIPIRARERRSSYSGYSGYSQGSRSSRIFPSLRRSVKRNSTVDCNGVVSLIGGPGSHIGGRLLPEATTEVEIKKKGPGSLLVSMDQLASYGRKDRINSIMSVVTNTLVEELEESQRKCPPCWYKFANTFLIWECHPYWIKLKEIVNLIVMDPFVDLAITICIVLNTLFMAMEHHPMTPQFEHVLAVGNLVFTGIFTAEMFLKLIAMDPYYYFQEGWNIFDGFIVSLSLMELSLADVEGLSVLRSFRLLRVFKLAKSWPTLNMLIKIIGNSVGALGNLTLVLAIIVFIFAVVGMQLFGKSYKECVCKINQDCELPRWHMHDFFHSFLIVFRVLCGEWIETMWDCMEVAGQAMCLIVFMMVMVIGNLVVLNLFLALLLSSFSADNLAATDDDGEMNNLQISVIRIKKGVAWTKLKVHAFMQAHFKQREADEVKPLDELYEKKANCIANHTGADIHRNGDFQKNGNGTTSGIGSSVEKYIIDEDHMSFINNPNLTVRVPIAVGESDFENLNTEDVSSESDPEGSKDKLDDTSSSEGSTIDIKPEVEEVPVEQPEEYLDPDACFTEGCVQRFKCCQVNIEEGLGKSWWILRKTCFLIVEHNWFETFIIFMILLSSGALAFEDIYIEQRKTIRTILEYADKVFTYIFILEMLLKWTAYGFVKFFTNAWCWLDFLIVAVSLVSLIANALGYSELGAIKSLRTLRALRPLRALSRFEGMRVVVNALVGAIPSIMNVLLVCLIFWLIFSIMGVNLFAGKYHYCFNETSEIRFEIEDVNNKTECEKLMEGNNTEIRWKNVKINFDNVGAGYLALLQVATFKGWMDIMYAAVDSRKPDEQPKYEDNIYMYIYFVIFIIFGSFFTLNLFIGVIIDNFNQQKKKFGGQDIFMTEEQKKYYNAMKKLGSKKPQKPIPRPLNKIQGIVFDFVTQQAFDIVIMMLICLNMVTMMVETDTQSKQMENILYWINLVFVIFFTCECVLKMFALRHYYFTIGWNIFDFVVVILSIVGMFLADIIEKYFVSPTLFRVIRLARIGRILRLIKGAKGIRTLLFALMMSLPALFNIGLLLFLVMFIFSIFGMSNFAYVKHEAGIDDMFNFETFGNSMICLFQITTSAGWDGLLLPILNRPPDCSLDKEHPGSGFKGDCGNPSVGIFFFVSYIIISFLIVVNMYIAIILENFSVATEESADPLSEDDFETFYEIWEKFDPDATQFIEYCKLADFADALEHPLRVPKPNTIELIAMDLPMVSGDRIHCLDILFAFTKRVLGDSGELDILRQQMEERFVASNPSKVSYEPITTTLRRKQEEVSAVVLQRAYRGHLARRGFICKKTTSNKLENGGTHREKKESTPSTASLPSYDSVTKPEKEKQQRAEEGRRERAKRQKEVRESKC
assay-info: Inhibition of ATX-II evoked Nav late current (INaL), PatchXpress electrophysiology
Format: cell-based
condition-details: HEK293, compound at 1 μM, late current evoked by ATX-II 300 nM
measured-quantity: inhibition at 1 µM

INPUT: If you can, please state the reported inhibition at 1 µM value of C[C@@H](Oc1ncc(-c2cn3c(C4CC4(F)F)nnc3cn2)cc1F)C(F)(F)F (single isomer, unassigned) [16 (Isomer 1)] .
OUTPUT: < 50%
